I'd be grateful if you could share measured IC50 for these entries.
Molecular target: hERG (Homo sapiens, UniProt Q12809)
Sequence (Q12809 whole entry): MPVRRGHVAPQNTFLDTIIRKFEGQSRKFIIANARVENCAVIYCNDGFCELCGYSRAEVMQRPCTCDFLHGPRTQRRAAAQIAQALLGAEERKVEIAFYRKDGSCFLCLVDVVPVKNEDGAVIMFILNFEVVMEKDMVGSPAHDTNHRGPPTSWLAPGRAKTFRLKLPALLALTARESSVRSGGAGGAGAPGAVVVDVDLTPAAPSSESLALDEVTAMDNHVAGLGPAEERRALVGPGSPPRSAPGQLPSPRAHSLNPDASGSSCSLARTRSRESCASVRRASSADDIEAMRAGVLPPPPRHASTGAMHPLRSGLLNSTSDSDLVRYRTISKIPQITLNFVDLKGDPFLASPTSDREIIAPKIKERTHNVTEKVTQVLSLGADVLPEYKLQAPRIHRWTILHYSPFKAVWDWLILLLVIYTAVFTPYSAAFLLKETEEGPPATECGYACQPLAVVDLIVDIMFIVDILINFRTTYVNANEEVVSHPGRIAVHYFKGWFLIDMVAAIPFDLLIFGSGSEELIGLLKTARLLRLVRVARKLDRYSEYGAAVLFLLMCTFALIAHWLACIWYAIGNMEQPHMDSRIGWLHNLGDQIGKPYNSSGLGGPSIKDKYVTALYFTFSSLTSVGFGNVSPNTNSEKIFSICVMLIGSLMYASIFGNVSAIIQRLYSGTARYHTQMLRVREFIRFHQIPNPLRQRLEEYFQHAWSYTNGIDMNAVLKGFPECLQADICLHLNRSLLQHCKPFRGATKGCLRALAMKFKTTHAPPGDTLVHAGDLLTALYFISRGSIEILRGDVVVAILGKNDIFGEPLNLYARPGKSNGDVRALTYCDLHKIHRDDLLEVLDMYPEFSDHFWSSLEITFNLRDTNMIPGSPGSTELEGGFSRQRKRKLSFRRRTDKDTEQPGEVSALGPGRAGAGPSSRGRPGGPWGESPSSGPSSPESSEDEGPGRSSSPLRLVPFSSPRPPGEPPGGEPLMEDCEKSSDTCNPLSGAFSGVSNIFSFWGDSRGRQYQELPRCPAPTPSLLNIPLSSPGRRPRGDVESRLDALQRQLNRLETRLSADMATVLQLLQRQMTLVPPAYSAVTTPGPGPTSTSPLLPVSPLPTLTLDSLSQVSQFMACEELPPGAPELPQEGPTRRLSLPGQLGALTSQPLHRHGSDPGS
Test: cell-based
Conditions: (-LOG10(IC50), µM)
A number alone suffices; assume µM.

Consider the compound shown here: CCCN(CCC)C(=O)Cc1c(-c2ccc(Cl)cc2)nc2ccc(Cl)cn12 [Alpidem] What is its recorded IC50?
20.5

Consider the compound shown here: CCCN(CCC)C(=O)CN [C.I. Solvent Black 5] What is its recorded IC50?
9.21

Consider the compound shown here: CCCCCCCCCCn1cc[n+](C)c1 What is its recorded IC50?
13.6

----------
Molecular target: hERG (Homo sapiens, UniProt Q12809)
Assay: cell-based
Conditions: (-LOG10(IC50), µM)
I'd be grateful if you could share measured IC50 for these entries.
A number alone suffices; assume µM.

Consider the compound shown here: N#CCCC(Br)(C#N)CBr (stereo not drawn) [1,2-Dibromo-2,4-dicyanobutane] What is its recorded IC50?
36.7

Consider the compound shown here: Cc1cc(C(C)(C)c2ccc(O)c(C)c2)ccc1O [3,3'-Dimethylbisphenol A] What is its recorded IC50?
41.6

Consider the compound shown here: CN(C)CCOC(c1ccccc1)c1ccc(Br)cc1 (stereo not drawn) [Bromodiphenhydramine] What is its recorded IC50?
4.09

Consider the compound shown here: CSc1ccc(Oc2ccc(S(N)(=O)=O)cc2CN(C)C)cc1C [UK-416244] What is its recorded IC50?
8.71

Consider the compound shown here: OC(c1ccc(Cl)cc1)(c1cncnc1)c1ccccc1Cl (stereo not drawn) [Fenarimol] What is its recorded IC50?
47.9

Consider the compound shown here: CCCN(CCOc1c(Cl)cc(Cl)cc1Cl)C(=O)n1ccnc1 [Prochloraz] What is its recorded IC50?
20.3

Consider the compound shown here: CCCC(=O)O[C@]1(C(=O)CCl)[C@@H](C)C[C@H]2[C@@H]3CCC4=CC(=O)C=C[C@]4(C)[C@@]3(F)C(=O)C[C@@]21C [Clobetasone butyrate] What is its recorded IC50?
8.01

Consider the compound shown here: OC(C#CCN1CCCC1)(c1ccccc1)c1ccccc1 [Butinoline] What is its recorded IC50?
19

Consider the compound shown here: CC(C(O)c1ccccc1)N(C)C/C=C/c1ccccc1 (stereo not drawn) [Cinnamedrine] What is its recorded IC50?
12

----------
I'd be grateful if you could share measured IC50 for these entries.
Target: hERG (Homo sapiens, UniProt Q12809)
Test: cell-based
Conditions: (-LOG10(IC50), µM)
# output: number + unit

Consider the compound shown here: COc1ccc(C(c2ccc(OC)cc2)C(Cl)(Cl)Cl)cc1 What is its recorded IC50?
20.5 µM

Consider the compound shown here: C=CC(C)(CCC=C(C)C)OC(=O)c1ccccc1 (stereo not drawn) [Linalyl benzoate] What is its recorded IC50?
20.3 µM

Consider the compound shown here: CCCOc1sc(C(=O)N2CCC(c3cc(CN)ccc3F)CC2)c(C)c1Br What is its recorded IC50?
4.49 µM

Consider the compound shown here: CCOC(=O)[C@@H](C)Oc1ccc(Oc2nc3ccc(Cl)cc3o2)cc1 What is its recorded IC50?
26 µM

Consider the compound shown here: CCN(CC)CCOC(=O)C(C)(c1ccccc1)c1ccccc1 What is its recorded IC50?
9.16 µM

Consider the compound shown here: O=[N+]([O-])c1ccc(Oc2ccc(C(F)(F)F)cc2[N+](=O)[O-])cc1 What is its recorded IC50?
7.76 µM

Consider the compound shown here: CC[N+]1(CC)CCC(=C(c2ccccc2)c2ccccc2)C1C (stereo not drawn) [Prifinium bromide] What is its recorded IC50?
20.5 µM

Consider the compound shown here: CCN(CC)CCNC(C(=O)OCCC(C)C)c1ccccc1 (stereo not drawn) What is its recorded IC50?
6.74 µM

Consider the compound shown here: CCCCCCC(C)OC(=O)COc1nc(F)c(Cl)c(N)c1Cl (stereo not drawn) What is its recorded IC50?
38.9 µM
